assay: AGP1-GFP expression modulators, hit retest, confirmation, cell-based, flow cytometry, S. cerevisiae, cherry picks (AID 2273);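 note: median GFP channel fluorescence over the whole cell population gate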; details: S. cerevisiae AGP1-GFP strain, 3 h, at 10 µM
measurement_type: GFP response, % of DMSO (%)
Give bare numbers, in %.

In [3]: df
Out[3]:
                                   compound         measurement_type  value
0  O=C(NCc1ccccc1)c1nc(S(=O)(=O)Cc2ccccc2)ncc1Cl  GFP response, % of DMSO    104
1  COc1ccc(N=Cc2nc(-c3ccccc3)oc2OC(=O)c2ccccc2)cc1  GFP response, % of DMSO   98.1
2      Nc1cccnc1S(=O)(=O)c1cccc(C(F)(F)F)c1  GFP response, % of DMSO   98.9
3  COc1ccc(-n2c(N)c(C(=O)Nc3c(C)n(C)n(-c4ccccc4)c3=O)c3nc4ccccc4nc32)cc1  GFP response, % of DMSO    102
4       COc1ccc(CN2CCN(c3ncccn3)CC2)c(C)c1C  GFP response, % of DMSO    100
5  CCN(CC(O)Cn1c2ccccc2c2ccccc21)S(=O)(=O)c1ccc(F)cc1 (stereo unspecified)  GFP response, % of DMSO   95.8
6  CCOC(=O)c1ccc(NC(=O)CCc2nc(-c3ccc(C)cc3)no2)cc1  GFP response, % of DMSO    100
7  Cc1nc(SC2CC(=O)N(c3ccccc3)C2=O)nc2c1CCCC2 (stereo unspecified)  GFP response, % of DMSO   93.1

Provide GFP response, % of DMSO values for the following items, in order.
1. O=C(COC(=O)c1n[nH]c2ccccc12)c1cccc(Br)c1
2. O=C(Nc1nc(-c2ccccc2)cs1)c1cccs1
3. Cc1cc(C)n2nc(C(=O)NC(c3ccccc3)c3ccccc3)nc2n1
4. COc1ccc(N2CCN(C(=O)c3ccc(OCC4CCCO4)cc3)CC2)cc1 (stereo unspecified)
5. CC(=O)c1cc(NC(=O)c2ccc(C)cc2)c(=O)oc1C
6. COc1cc(CCN2C(=O)c3cccc4cccc(c34)C2=O)c(S(=O)(=O)NCCCO)cc1OC
7. CCOC(=O)/C(=C\c1cn(C)c2ccccc12)[N+](=O)[O-]
8. CN1CCN(CCCCOc2ccccc2C=O)CC1

output:
1: 102; 2: 86.9; 3: 104; 4: 99.8; 5: 94.3; 6: 93.6; 7: 84.2; 8: 102

Provide GFP response, % of DMSO values for the following items, in order.
1. Nc1ccccc1NC(=O)c1ccccc1
2. Cc1ccc(C(=O)/C=C/C(=O)c2ccc(C)cc2)cc1
3. CC(C)(C)C1=CC=C(C(C)(C)C)C(=O)C1=O
4. Cc1ccc(N2C(=O)C(Cl)=C(NCc3ccccc3)C2=O)c(C)c1
5. O=S(=O)(c1ccc(-c2ccccc2)cc1)N1CCOCC1
6. Cn1c(=O)c(C(=O)NC2CCCCCCC2)c(O)c2ccccc21

output:
[98.4, 111, 98.7, 100, 99.5, 98.9]
